biological target: 3-oxo-5-alpha-steroid 4-dehydrogenase 1 (Homo sapiens); experiment: Inhibition of human 5-alpha reductase 1 expressed in LNCap cells
Sequence (P18405 whole entry): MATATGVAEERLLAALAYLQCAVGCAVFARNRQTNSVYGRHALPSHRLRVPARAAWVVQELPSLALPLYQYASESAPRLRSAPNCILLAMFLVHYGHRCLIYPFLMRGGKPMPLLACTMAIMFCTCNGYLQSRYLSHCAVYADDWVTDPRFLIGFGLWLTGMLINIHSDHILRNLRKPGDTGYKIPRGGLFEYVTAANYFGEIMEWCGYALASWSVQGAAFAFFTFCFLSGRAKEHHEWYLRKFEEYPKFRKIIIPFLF
Recorded IC50 by entry
Record the value in µM, omitting the unit from your answer.

These solved cases illustrate the format of a correct answer.
CCC(CC)(c1ccc(OC(=O)N(C(C)C)C(C)C)cc1)c1ccc(N(C)C(C)=O)cc1    4
CCCN(CCC)C(=O)Oc1ccc(C(CC)(CC)c2ccc(N(C)C(C)=O)cc2)cc1    2.9
CCN(CC)C(=O)Oc1ccc(C(CC)(CC)c2ccc(N(C)C(C)=O)cc2)cc1    9.2

-- ask State, in one line, measured IC50 of `CCC(CC)(c1ccc(OC(=O)N(Cc2ccccc2)Cc2ccccc2)cc1)c1ccc(N(C)C(C)=O)cc1`
-- reply 0.84

-- ask State, in one line, measured IC50 of `CCC(CC)(c1ccc(OC(=O)N2CCCCC2)cc1)c1ccc(N(C)C(C)=O)cc1`
-- reply 4.7

-- ask State, in one line, measured IC50 of `CCC(CC)(c1ccc(OC(=O)N2CCCCCC2)cc1)c1ccc(N(C)C(C)=O)cc1`
-- reply 4.7

Reference source: ChEMBL document CHEMBL1139779
